Tested on: MDA-MB-436
Experiment: normalised viability (% of control), CellTiter-Blue; higher = more viable cells (100 = DMSO, 0 = benzethonium chloride kill control)
Settings: incubation time: 72 h
parameter: normalised viability (%)

1) CC(C)(C)c1cc(NC(=O)Nc2ccc(-c3cn4c(n3)sc3cc(OCCN5CCOCC5)ccc34)cc2)no1 [Quizartinib] (0.1 nM): 98.1
2) COC1=CC(c2cc3ccccc3[nH]2)=N/C1=C\c1[nH]c(C)cc1C [Obatoclax] (1 nM): 83.5
3) Cn1cnc2c(F)c(Nc3ccc(Br)cc3F)c(C(=O)NOCCO)cc21 [MEK-162] (0.1 nM): 104
4) c1ccc(C2CN3CCSC3=N2)cc1 (configuration not stated) [Tetramisole] (1 nM): 102
5) C#Cc1cccc(Nc2ncnc3cc(OC)c(OCCCCCCC(=O)NO)cc23)c1 [CUDC-101] (1 nM): 96.4
6) C[C@@H]1C=C2C(=O)O[C@@H]3CC[C@H](C1)[C@]23O [Galiellalactone] (5 nM): 94.6
7) COc1c(C)cnc(Cn2cnc3c(Cl)nc(N)nc32)c1C [BIIB021] (1 nM): 102
8) COc1cc(Nc2ncc(F)c(Nc3ccc4c(n3)NC(=O)C(C)(C)O4)n2)cc(OC)c1OC [R406] (1 nM): 92.1
9) O=C(c1ccc(OCCN2CCCCC2)cc1)c1c(-c2ccc(O)cc2)sc2cc(O)ccc12 [Raloxifene] (1 nM): 91.6
10) COC1=C2C[C@@H](C)C[C@H](OC)[C@H](O)[C@@H](C)/C=C(\C)[C@H](OC(N)=O)[C@@H](OC)/C=C\C=C(/C)C(=O)NC(=CC1=O)C2=O [Geldanamycin] (1 nM): 110
11) CCCC(CCC)C(=O)O [Valproic acid] (1 nM): 89.9
12) O=c1[nH]c(=O)n([C@H]2C[C@H](O)[C@@H](CO)O2)cc1F [Floxuridine] (1 nM): 112
